Ki by entry:
- STUDY SYSTEM: Alpha-2C adrenergic receptor (Homo sapiens, UniProt P18825)
- Sequence (P18825 whole entry): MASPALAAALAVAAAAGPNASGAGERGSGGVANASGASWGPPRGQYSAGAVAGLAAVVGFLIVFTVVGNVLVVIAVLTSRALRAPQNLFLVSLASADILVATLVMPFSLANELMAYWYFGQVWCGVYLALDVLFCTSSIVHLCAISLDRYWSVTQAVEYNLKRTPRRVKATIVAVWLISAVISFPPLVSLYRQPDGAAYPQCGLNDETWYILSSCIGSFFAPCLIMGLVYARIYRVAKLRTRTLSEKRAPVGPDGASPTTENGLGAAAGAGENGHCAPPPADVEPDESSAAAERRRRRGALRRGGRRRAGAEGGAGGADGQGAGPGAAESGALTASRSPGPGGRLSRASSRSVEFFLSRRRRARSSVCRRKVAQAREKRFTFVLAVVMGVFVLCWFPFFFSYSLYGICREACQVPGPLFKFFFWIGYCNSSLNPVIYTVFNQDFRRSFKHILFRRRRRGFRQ

MOLECULE: COc1cc(CC(C)N)c(OC)cc1Br (stereo unspecified)
UNIT TAG: µM
LIMIT SIGN: =
Ki: 0.594
--
MOLECULE: CCSc1cc(OC)c(CC(N)CC)cc1OC (stereo unspecified)
UNIT TAG: µM
LIMIT SIGN: >
Ki: 10
--
MOLECULE: CCSc1cc(OC)c(CCN)cc1OC
UNIT TAG: µM
LIMIT SIGN: =
Ki: 0.166
--
MOLECULE: CCCN(CCC)CCc1c[nH]c2ccccc12
UNIT TAG: µM
LIMIT SIGN: =
Ki: 0.514
--
MOLECULE: CCOc1cc(OC)c(CC(C)N)cc1OC (stereo unspecified)
UNIT TAG: µM
LIMIT SIGN: >
Ki: 10
--
MOLECULE: COc1cc(CCN)cc(OC)c1OC
UNIT TAG: µM
LIMIT SIGN: =
Ki: 0.745
--
MOLECULE: COc1cc(CCN)c(OC)cc1Br
UNIT TAG: µM
LIMIT SIGN: =
Ki: 0.103
--
MOLECULE: COc1cc(OC)c(OC)cc1CC(C)N (stereo unspecified)
UNIT TAG: µM
LIMIT SIGN: >
Ki: 10
--
MOLECULE: COc1ccc2[nH]cc(CCN(C(C)C)C(C)C)c2c1
UNIT TAG: µM
LIMIT SIGN: =
Ki: 2.86
--
MOLECULE: COc1ccc2[nH]cc(CCN(C)C)c2c1
UNIT TAG: µM
LIMIT SIGN: =
Ki: 0.508
--
MOLECULE: COc1ccc2[nH]cc(CCN(C)C(C)C)c2c1
UNIT TAG: µM
LIMIT SIGN: =
Ki: 0.637
--
MOLECULE: CNC(C)Cc1ccc2c(c1)OCO2 (stereo unspecified)
UNIT TAG: µM
LIMIT SIGN: =
Ki: 1.35
--
MOLECULE: CC(C)N(CCc1c[nH]c2ccccc12)C(C)C
UNIT TAG: µM
LIMIT SIGN: =
Ki: 2.52
--
MOLECULE: CN(C)CCc1c[nH]c2cc(F)ccc12
UNIT TAG: µM
LIMIT SIGN: =
Ki: 0.149
--
MOLECULE: CCc1cc(OC)c(CC(C)N)cc1OC (stereo unspecified)
UNIT TAG: µM
LIMIT SIGN: =
Ki: 1.45
--
MOLECULE: CCSc1cc(OC)c(CC(C)N)cc1OC (stereo unspecified)
UNIT TAG: µM
LIMIT SIGN: =
Ki: 1.39
--
MOLECULE: COc1cc(CC(C)N)c(OC)cc1C (stereo unspecified)
UNIT TAG: µM
LIMIT SIGN: =
Ki: 0.921
--
MOLECULE: CC(N)Cc1ccc2c(c1)OCO2 (stereo unspecified)
UNIT TAG: µM
LIMIT SIGN: =
Ki: 0.229
--
MOLECULE: COc1cc(CC(C)N)cc(OC)c1OC (stereo unspecified)
UNIT TAG: µM
LIMIT SIGN: =
Ki: 5.01
--
MOLECULE: NCCc1c2c(c(Br)c3c1OCC3)OCC2
UNIT TAG: µM
LIMIT SIGN: =
Ki: 0.233
--
MOLECULE: CCc1cc(OC)c(CCN)cc1OC
UNIT TAG: µM
LIMIT SIGN: =
Ki: 0.0902

----------
Heads up, these compounds all have Ki values measured for 5-hydroxytryptamine receptor 2A (Homo sapiens, UniProt P28223).

COMPOUND: CCc1cc(OC)c(CC(C)N)cc1OC (centres undefined)
LIMIT SIGN: =
Ki, nM: 27.3
//
COMPOUND: C[C@@H]1C[C@@H](C)N1C(=O)C1C=C2c3cccc4[nH]cc(c34)C[C@H]2N(C)C1 (some centres undefined) [ss-2c]
LIMIT SIGN: =
Ki, nM: 19.2
//
COMPOUND: CCSc1cc(OC)c(CC(C)N)cc1OC (centres undefined)
LIMIT SIGN: =
Ki, nM: 60.4
//
COMPOUND: CCOc1cc(OC)c(CC(C)N)cc1OC (centres undefined)
LIMIT SIGN: =
Ki, nM: 3950
//
COMPOUND: CCc1[nH]c2ccc(OC)cc2c1CCN(C)C
LIMIT SIGN: >
Ki, nM: 10000
//
COMPOUND: CC(C)N(CCc1c[nH]c2ccccc12)C(C)C
LIMIT SIGN: >
Ki, nM: 10000
//
COMPOUND: COc1cc(CC(C)N)c(OC)cc1C (centres undefined)
LIMIT SIGN: =
Ki, nM: 507
//
COMPOUND: CC[C@H]1C[C@@H]2C[C@H]3c4[nH]c5ccc(OC)cc5c4CCN(C2)[C@@H]13
LIMIT SIGN: =
Ki, nM: 14100
//
COMPOUND: CCc1cc(OC)c(CCN)cc1OC
LIMIT SIGN: =
Ki, nM: 43.9

----------
- STUDY SYSTEM: Sodium-dependent serotonin transporter (Homo sapiens)
- Sequence (P31645 whole entry): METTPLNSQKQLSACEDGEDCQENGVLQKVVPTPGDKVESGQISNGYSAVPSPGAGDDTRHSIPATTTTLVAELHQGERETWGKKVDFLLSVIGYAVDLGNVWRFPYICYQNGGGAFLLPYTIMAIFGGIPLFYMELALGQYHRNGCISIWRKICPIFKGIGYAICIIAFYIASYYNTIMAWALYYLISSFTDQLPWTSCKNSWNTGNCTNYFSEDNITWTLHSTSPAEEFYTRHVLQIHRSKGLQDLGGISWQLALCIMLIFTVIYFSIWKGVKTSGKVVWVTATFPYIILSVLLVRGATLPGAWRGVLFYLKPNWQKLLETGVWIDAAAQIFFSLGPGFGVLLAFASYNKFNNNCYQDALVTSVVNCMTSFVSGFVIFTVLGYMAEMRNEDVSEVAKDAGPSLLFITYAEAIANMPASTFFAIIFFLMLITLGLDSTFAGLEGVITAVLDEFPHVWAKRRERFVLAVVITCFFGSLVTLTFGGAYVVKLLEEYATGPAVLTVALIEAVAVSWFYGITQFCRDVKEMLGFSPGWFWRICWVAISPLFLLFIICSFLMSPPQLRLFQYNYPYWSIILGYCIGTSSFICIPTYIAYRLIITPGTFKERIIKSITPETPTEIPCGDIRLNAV
- PROCEDURE SUMMARY: Ray2010 Assay 74
READOUT LABEL: Ki (µM)

COMPOUND: COc1cc(CCN)c(OC)cc1Br
STUDY SYSTEM: Sodium-dependent serotonin transporter (Homo sapiens)
READOUT LABEL: Ki
UNIT TAG: µM
LIMIT SIGN: >
NUMERIC RESULT: 10
//
COMPOUND: C[C@@H]1C[C@@H](C)N1C(=O)C1C=C2c3cccc4[nH]cc(c34)C[C@H]2N(C)C1 (stereo partly specified) [rr-2b]
STUDY SYSTEM: Sodium-dependent serotonin transporter (Homo sapiens)
READOUT LABEL: Ki
UNIT TAG: µM
LIMIT SIGN: >
NUMERIC RESULT: 10
//
COMPOUND: CC(C)N(CCc1c[nH]c2ccccc12)C(C)C [dipt]
STUDY SYSTEM: Sodium-dependent serotonin transporter (Homo sapiens)
READOUT LABEL: Ki
UNIT TAG: µM
LIMIT SIGN: =
NUMERIC RESULT: 1.26
//
COMPOUND: C[C@@H]1C[C@H](C)N1C(=O)C1C=C2c3cccc4[nH]cc(c34)C[C@H]2N(C)C1 (stereo partly drawn) [cis-2a]
STUDY SYSTEM: Sodium-dependent serotonin transporter (Homo sapiens)
READOUT LABEL: Ki
UNIT TAG: µM
LIMIT SIGN: >
NUMERIC RESULT: 10
//
COMPOUND: CNC(C)Cc1ccc2c(c1)OCO2 (stereo unspecified) [mdma]
STUDY SYSTEM: Sodium-dependent serotonin transporter (Homo sapiens)
READOUT LABEL: Ki
UNIT TAG: µM
LIMIT SIGN: >
NUMERIC RESULT: 10
//
COMPOUND: COc1ccc2[nH]cc(CCN(C)C(C)C)c2c1 [5-meo-mipt]
STUDY SYSTEM: Sodium-dependent serotonin transporter (Homo sapiens)
READOUT LABEL: Ki
UNIT TAG: µM
LIMIT SIGN: =
NUMERIC RESULT: 6.41
//
COMPOUND: COc1cc(CC(C)N)c(OC)cc1Br (stereo unspecified)
STUDY SYSTEM: Sodium-dependent serotonin transporter (Homo sapiens)
READOUT LABEL: Ki
UNIT TAG: µM
LIMIT SIGN: =
NUMERIC RESULT: 8.54
//
COMPOUND: CCc1cc(OC)c(CCN)cc1OC
STUDY SYSTEM: Sodium-dependent serotonin transporter (Homo sapiens)
READOUT LABEL: Ki
UNIT TAG: µM
LIMIT SIGN: >
NUMERIC RESULT: 10
//
COMPOUND: CCSc1cc(OC)c(CC(C)N)cc1OC (stereo unspecified)
STUDY SYSTEM: Sodium-dependent serotonin transporter (Homo sapiens)
READOUT LABEL: Ki
UNIT TAG: µM
LIMIT SIGN: =
NUMERIC RESULT: 1.32
//
COMPOUND: NCCc1c2c(c(Br)c3c1OCC3)OCC2
STUDY SYSTEM: Sodium-dependent serotonin transporter (Homo sapiens)
READOUT LABEL: Ki
UNIT TAG: µM
LIMIT SIGN: >
NUMERIC RESULT: 10
//
COMPOUND: COc1ccc2[nH]cc(CCN(C)C)c2c1 [3-(2-DIMETHYLAMINOETHYL)-5-METHOXYINDOLE]
STUDY SYSTEM: Sodium-dependent serotonin transporter (Homo sapiens)
READOUT LABEL: Ki
UNIT TAG: µM
LIMIT SIGN: =
NUMERIC RESULT: 2.03
//
COMPOUND: COc1cc(CC(C)N)cc(OC)c1OC (stereo unspecified)
STUDY SYSTEM: Sodium-dependent serotonin transporter (Homo sapiens)
READOUT LABEL: Ki
UNIT TAG: µM
LIMIT SIGN: >
NUMERIC RESULT: 10
//
COMPOUND: CCOc1cc(OC)c(CC(C)N)cc1OC (stereo unspecified)
STUDY SYSTEM: Sodium-dependent serotonin transporter (Homo sapiens)
READOUT LABEL: Ki
UNIT TAG: µM
LIMIT SIGN: >
NUMERIC RESULT: 10
//
COMPOUND: CN(C)CCc1c[nH]c2cc(F)ccc12 [6-f-dmt]
STUDY SYSTEM: Sodium-dependent serotonin transporter (Homo sapiens)
READOUT LABEL: Ki
UNIT TAG: µM
LIMIT SIGN: =
NUMERIC RESULT: 0.145
//
COMPOUND: CN(C)CCc1c[nH]c2ccccc12 [2-(1H-indol-3-yl)-N,N-dimethylethanamine]
STUDY SYSTEM: Sodium-dependent serotonin transporter (Homo sapiens)
READOUT LABEL: Ki
UNIT TAG: µM
LIMIT SIGN: =
NUMERIC RESULT: 3.74
//
COMPOUND: COc1cc(CC(C)N)c(OC)cc1C (stereo unspecified)
STUDY SYSTEM: Sodium-dependent serotonin transporter (Homo sapiens)
READOUT LABEL: Ki
UNIT TAG: µM
LIMIT SIGN: >
NUMERIC RESULT: 10

From: BindingDB's records for PubMed 20126400
